B1: TPR t1 (parent)
chain: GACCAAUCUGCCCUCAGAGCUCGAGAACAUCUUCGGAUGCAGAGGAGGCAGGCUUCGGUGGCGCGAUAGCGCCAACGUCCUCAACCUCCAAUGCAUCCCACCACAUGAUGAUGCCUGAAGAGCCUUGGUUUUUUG

variants of: B1; test: polymerase ribozyme fitness, log enrichment relative to wild type (log ratio); higher = more active; in vitro selection for triplet polymerase activity
Label YES when polymerase ribozyme fitness (log ratio) is at or above -2; anything below gets NO.

Check out these entries, answers already filled in.
GACGAAUCUGCCCUCAGAGCUCGAGAACAUCUUCGGAUGCAGAUGAGGCAGGCUUCGGUGUCGCGUUAGCGGCAACGUCCUAAAACUCCAAUGCAUCCCACCACAUGAUGCUGCCUGAAGAGCCUUGGUUUUUUG [C4G G44U G61U A66U C72G C82A C85A A111C] :: NO
GACCAAUCUGCCCUCAGAGCUCGAGAACAUCUUCGGAUGCAGAGGAGGCAGGCUUCGGUGGCGCGAUAUCGCCAACGUCCUCAACCUCCAAUGCAUCCCACCACAUGAUGAUGCCUGAAGGGCCUUGGUUUUUUG [G69U A121G] :: YES
GACCUAUCUGCCCUCAGAGCUCGAGAACAUCUUCGGAUGCAGAGGAGGCAGGCUUCGGUGGCGCGAUAGCGCCAACGUCCUCAACCUCCAAUGCAUCCCACCACAUGAUGAUGCCUGAAGAGCCUUGGUGUUUUG [A5U U130G] :: YES
GACCAAUCUGCCCGCAGAGCUCGAGAACAUCUUCGGAUGCAGAGGAGGCAGGCUUCGGUGGCGCGAUAGCGCCAACGUCCUCAACCUCCAAUGCUUCCCACCACAUGAUGAUGCCUGAAGAGCCUUGGUUUUUUG [U14G A95U] :: NO
GACCAAUCUGCCCUUAGAGCUCGAGAACAUCUUCGGAUGCAGAGGAGGCAGGCUUCGGUGGCGCGAUAUCGCCAACGCCCUCAACCUCCAAUGCAUCCCACCACAUGAUGAUGCCUGAAGAGCCUUGGUUUUUUG [C15U G69U U78C] :: YES
GACCAAUCUGCCCUCAGAGCUCGAGAACAUCUUCGGAUGCAGAGGAGGAAGGCUUCGGUGGCGCGAUAGCGCCAACGUCCUCAACCUCCAAUGCAUCCCACCACAUGAUGAUGCCUGAAGAGCAUUGGUUUUUUG [C49A C124A] :: YES
GACCAAUUUGCCCUCAGAGCUCGAGAACAUCUUCGGAUGCAAAGGAGGCAGGCUUCGGUGGCGCGAUAGCGCCAACGUCCUCAACCUCCAAUGCAUCCCACCACAUGAUGGUGCCAGAAGGGCGUUGGUUUUUUG [C8U G42A A111G U116A A121G C124G] :: NO
GACCAAUUUGCCCUCAGAGCUCGAGAACAUCUUCGGAUGCAGAGGAGGCAGGCUUCGGUGGCGCGAUAGCACCAAAGUCCUCAACCUCCAAUGCAUCCCACCACAUGAUGAUGCCUGAAUAGCCUUGGUUUUUUG [C8U G71A C76A G120U] :: NO
GACCAAUCUGCCCUCAGAGCUCGAGAACAUCUUCGGAUGCCGAGGAGGCAGGCUUCGGUGGUGCGAUAGCGCCAACGUCCUCAACCUCCAAUGCAUCCCACCACAUGAUAAUGCCUGAAGAGCCUUGGUUUUUUG [A41C C62U G110A] :: NO

# evaluate next
# bool: polymerase ribozyme fitness (log ratio) of GACCAAUCUGCCCUCAGAGCUCGAGAACACCUUCGGAUGCAGAGGAGGCAGGCUUCGGUGGUGCGAUAGCGCCAACGCCCUCAACCUCCAAUGCAUCCCACCACAUGAUGAUGCCUGAAGAGCCUUGGUUUUUUG [U30C C62U U78C] >= -2 NO
